Target: Peregrin (Homo sapiens) (UniProt P55201)
Sequence (whole entry): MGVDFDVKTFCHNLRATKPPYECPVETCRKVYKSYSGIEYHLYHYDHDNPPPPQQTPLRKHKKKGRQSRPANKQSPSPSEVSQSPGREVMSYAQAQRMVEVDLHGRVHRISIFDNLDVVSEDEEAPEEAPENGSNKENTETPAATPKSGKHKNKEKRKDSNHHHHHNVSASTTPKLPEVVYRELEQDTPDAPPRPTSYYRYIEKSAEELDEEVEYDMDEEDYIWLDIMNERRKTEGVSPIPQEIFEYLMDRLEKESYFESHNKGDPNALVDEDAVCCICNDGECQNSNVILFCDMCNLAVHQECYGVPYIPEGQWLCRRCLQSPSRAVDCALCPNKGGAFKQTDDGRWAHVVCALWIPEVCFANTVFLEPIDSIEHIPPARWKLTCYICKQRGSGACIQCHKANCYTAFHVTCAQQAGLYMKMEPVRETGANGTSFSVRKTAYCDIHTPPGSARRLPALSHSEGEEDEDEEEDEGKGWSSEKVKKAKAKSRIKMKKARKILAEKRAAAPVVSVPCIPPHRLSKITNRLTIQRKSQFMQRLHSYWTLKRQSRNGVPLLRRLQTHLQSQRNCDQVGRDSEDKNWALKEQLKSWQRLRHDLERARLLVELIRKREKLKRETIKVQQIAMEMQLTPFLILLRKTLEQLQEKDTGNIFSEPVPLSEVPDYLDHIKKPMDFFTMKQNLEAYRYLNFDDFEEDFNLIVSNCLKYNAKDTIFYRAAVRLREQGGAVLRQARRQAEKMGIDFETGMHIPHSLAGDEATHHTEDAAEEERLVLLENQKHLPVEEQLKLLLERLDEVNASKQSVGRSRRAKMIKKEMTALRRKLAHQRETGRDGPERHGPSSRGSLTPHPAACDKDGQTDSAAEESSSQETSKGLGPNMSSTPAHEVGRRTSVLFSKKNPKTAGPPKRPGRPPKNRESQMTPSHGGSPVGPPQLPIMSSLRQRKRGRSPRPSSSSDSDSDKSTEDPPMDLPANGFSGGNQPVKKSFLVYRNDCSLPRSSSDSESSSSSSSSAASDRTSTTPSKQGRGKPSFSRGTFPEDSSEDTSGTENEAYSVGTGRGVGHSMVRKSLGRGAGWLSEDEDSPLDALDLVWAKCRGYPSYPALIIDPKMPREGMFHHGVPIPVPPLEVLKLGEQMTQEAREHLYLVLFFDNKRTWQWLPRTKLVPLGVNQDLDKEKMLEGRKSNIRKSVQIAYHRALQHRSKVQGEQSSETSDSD
ΔTm less than 5 °C is TRUE; ΔTm greater than or equal to 5 °C is FALSE.

These recorded examples may help you get a feel for the data.
- input.smiles: "CCn1c(=O)c(C)cc2cc(NS(=O)(=O)c3ccc(C#N)cc3)ccc21"
  test.target: "Peregrin (Homo sapiens) (UniProt P55201)"
  class.assignment: "FALSE"
- input.smiles: "Cn1c(=O)ccc2cc(NS(=O)(=O)c3ccc(C#N)c(Cl)c3)ccc21"
  test.target: "Peregrin (Homo sapiens) (UniProt P55201)"
  class.assignment: "TRUE"
- input.smiles: "Cn1c(=O)ccc2cc(NS(=O)(=O)c3ccc(C#N)cc3F)ccc21"
  test.target: "Peregrin (Homo sapiens) (UniProt P55201)"
  class.assignment: "TRUE"

Then there is this compound:
Query :: Consider the compound "Cc1cc(C#N)ccc1S(=O)(=O)Nc1ccc2c(ccc(=O)n2C)c1" . Is its ΔTm strictly less than 5 °C?
Result :: FALSE
